Values compiled from ChEMBL document CHEMBL3751709.

System: Haemophilus influenzae
procedureSummary: Antimicrobial activity against Haemophilus influenzae ATCC 51907 after 24 hrs by double dilution method
Format: functional
studyConditions: ATCC 51907, 24 h
measuredAttribute: MIC

INSERT INTO measurements (molecule, measuredtarget, measuredattribute, observedvalue) VALUES
  ('CC(C)C1CCC(C(=O)NCC(=O)NCc2ccccc2)CC1 (configuration not stated)', 'Haemophilus influenzae', 'MIC', '> 128 µg/mL'),
  ('CCC(C)C(=O)NCC(=O)N1CCN(Cc2ccccc2)CC1 (configuration not stated)', 'Haemophilus influenzae', 'MIC', '> 128 µg/mL'),
  ('NCCCCNC(=O)C(c1ccc(Br)cc1)N(Cc1ccccc1)C(=O)CCS (configuration not stated)', 'Haemophilus influenzae', 'MIC', '16 µg/mL'),
  ('N#Cc1ccc(C(=O)N(CCCc2ccccc2)CC(=O)N2CCNCC2)cc1', 'Haemophilus influenzae', 'MIC', '> 128 µg/mL'),
  ('CCCC(=O)N(Cc1ccccc1)C(C(=O)NCCCCN)c1ccc(Br)cc1 (configuration not stated)', 'Haemophilus influenzae', 'MIC', '64 µg/mL'),
  ('CC(C)SCC(=O)NCC(=O)NCc1ccccc1', 'Haemophilus influenzae', 'MIC', '> 128 µg/mL'),
  ('CN(C)[C@@H]1C(O)=C(C(N)=O)C(=O)[C@@]2(O)C(O)=C3C(=O)c4c(O)cccc4[C@@](C)(O)[C@H]3C[C@@H]12 [TETRACYCLINE]', 'Haemophilus influenzae', 'MIC', '< 2 µg/mL');
